The origin of these recorded values is the nanobody polyreactivity screen of Harvey et al. (2022).

assay: yeast display, Sf9 membrane polyspecificity reagent, FACS + sequencing; frameworks hold sequencing errors
MEASURED PROPERTY: polyreactivity (PSR sort gate)

Consider the following illustrative entries.
ENTRY SEQUENCE	polyreactivity (PSR sort gate)
QVQLVESGGGLVQAGGSLRLSCAASKESINAMGWYRQAPGKERELVAAIGWSGSSTYYADSVKGRFTISRDNAKNTVYLQMNSLKPEDTAVYYCAADTTTGDRGFDYWGQGTQVTVSS	high polyreactivity
QVHLVESGGGLVQAGGSLRLSCAASGSIFGYNTMGWYRQAPGKERELVATISGSGGSSYYADSVKGRFTISRDNAKNTVYLQMNSLKPEDTSVYYCAARAYSRYRRTYDYWGQGTQVTVSS	high polyreactivity
QVQLVESGGGLVQAGGSLRLSCDASGSIFGWYAMGWYRQAPGKERELVAAITFSSVSTYYADSVKGRFTISRDNAKNTVYLLMNSLKPEDTAVYYCAAVVYYTFDYWGQGTQVTVSS	low polyreactivity
QVQLVESGGGLVQAGGSLRLSCAASGSTFFKNAMGWYRQAPGKESELVAGISYGGGRTYYADSVKGRFTISRDNAKNTVYLQMKSLKPEDTAVYYCNTVTSPAPYYSYDSWGQGTQVTVSS	high polyreactivity
QVQLVESGGGLVQAGGSLRLSCAASGLIFVSNAMGWYRQAPGKERELVAAISWSGSRTYYADSVKGRFTISRDNAKNTVYLQMNSLKPEDTAVYYCNAVRRGLPVVGAYDYWGQGTQVTVSS	high polyreactivity
QVQLVESGGGLVQAGGSLRLSCAASGRIFVYNAMGWYRQAPGKEWELVATITSGGSTYYADSVKGRFTISRDNAMNTVYLQMNSLKPEDTAVYYCAARRWYVHYFAYGYWGQGTQVTVSS	low polyreactivity

Give the reported value of polyreactivity (PSR sort gate) for this record: QVQLVESGGGLVQAGGSLRLSCAASGLTFSRYAMGWYRQAPGKERELVAAISSRSGSTFYADSVKGRFTISRDNAKNTVYLQMNSLKPEDTAVYYCAARRDWLGGYWGQGTQVTVSS
high polyreactivity

Give the reported value of polyreactivity (PSR sort gate) for this record: QVQLVESGGGLVQAGGSLRLSCAASGFTFVRYAMGWYRQAPGKESEFVASISARGGNTFYADSVKGRFTISRDNAKNTVYLQMNSLKPEDTAVYYCAKPGPYGTGYGYWGQGTQVTVSS
high polyreactivity

Give the reported value of polyreactivity (PSR sort gate) for this record: QVELVESGGGLVQAGRSLRLSCAASGRILVSYAMGWYRQAPGKERELVAGITSGGDSTYYADSVKGRFTISRDNAKNTVYLQMNSLKPEDTAVYYCDADRDSYRGRKNVRERYTYWGQGTQVTVSS
high polyreactivity

Give the reported value of polyreactivity (PSR sort gate) for this record: QVQLVESGGGLVQAGGSLRLSCAASGGTFAQYVMGWYRQAPGKERELVAAISRTGGRTYYADSVKGRFTISRDNAKNTVYLQMNSLKPEDTAVYYCARVYTSYGTPWTNYDYWGQGTQVTVSS
high polyreactivity

Give the reported value of polyreactivity (PSR sort gate) for this record: QVQLVESGRGLVQAGGSLRLSCAASGSIFNCYDMGWYRQAPGKERELVADIRSAGSTYYADSVKGRFTISRDNAKNTVYLQMNSLKPEDTAVNYCAAEAPVQPFYVFNTGIYELDYWGQGTQVTVSS
low polyreactivity

----------
assay: yeast display, Sf9 membrane polyspecificity reagent, FACS + sequencing; frameworks hold sequencing errors
MEASURED PROPERTY: polyreactivity (PSR sort gate)

Consider the following illustrative entries.
ENTRY SEQUENCE	polyreactivity (PSR sort gate)
QVQLVESGGGLVQAGGSLRLSCAASGRTFTYYAMGWYIQAPGKERELVAAISSGGRTYYADSVKGRFTISRDNAKNTVYLQMNSLKPEDTAVYYCAADAYRSPWRLYGSRFGYWGQGTQVTVSS	high polyreactivity
QVQLHESPGGLVLAGGSLRLSCAESGYISWSFTMGLYRKAPGKEREFVAGITYGGISYYADSVKGRFTISRDNAIITVYLQMNTLKPEDTAVYYCAAPQTNPYVYVYWGQGTQVTVSS	high polyreactivity
QVHLVESGVGLVKAGGTLRLSCAASGGIFIRNAMGWYRQAPGKERELVATISNAGSTYADAVKGRFTISRDNAKNPVHLQMHSLKPEDTAVYYCNRDDWTYPVYQGLQEYDYWGQGTQVSVSS	low polyreactivity
QVQLVESGGGLVQAGGSLRLSCAASGRSFNPYAMGWYRQAPGKERELVAAITNSGGSTYYADSVKVRFTISRDTAMNTFYLQMNSLKPEDTAVYYCNARRYPRYYYWGQGTQVTGSS	high polyreactivity

Give the reported value of polyreactivity (PSR sort gate) for this record: QVQLVESGGGLVQAGGSLRLSCAASGSTFGWYAMGWYRQAPGKESELVAAIRTSGGDSTYYADSVKGRFTISRDNAKNTVYLQMNSLKPEDTAVYYCAKTVWWYYRYPFDYWGQGTQGTVSS
low polyreactivity

----------
test: yeast display, Sf9 membrane polyspecificity reagent, FACS + sequencing; frameworks hold sequencing errors
MEASURED PROPERTY: polyreactivity (PSR sort gate)

Consider the following illustrative entries.
ENTRY SEQUENCE	MEASURED PROPERTY	RESULT
QVQFVDSGAGLVQAGGSLRLSCAASGSTLTTNAMGWYRQAPGKERELVAAISWRGGPTYYADSVKGRFTISRDIAKNTVYLQMNSLKPEDTAVYYCAADYTRSAYDYWGQGTQVTVSS	polyreactivity (PSR sort gate)	high polyreactivity
QVQLVESGGGLVQAGGSLRISCAASGPTFPLYAMGGNRQAPGKERELVAAIRTGGSTNYADSVKGRFTISRDNAKNTVYLQMNSLKPEDTAVSYCAAVQRTDRSAHYSWGHGTQVTVSS	polyreactivity (PSR sort gate)	low polyreactivity
QVQLVESGGGLVQAGGSLRISCAASGSIFTSNVMGWYRQAPGKERELVAAITITGTTNYADSVKGRFTISRDNAKNTVYLQMNSLKPEDTAVYYCAKRYYRFYQGWPPEDYWGQGTQVTVSS	polyreactivity (PSR sort gate)	low polyreactivity
QVQLVESGGGLVQAGGSLRLSCAASGSTFAQNAMGWYILAPGKERELVAAISRRGTITNYADSVKGRFTISRDNEKITVYLQMYSLKPEDTAVYYCATRSWLLGIQGGYWGQGTQVTVSS	polyreactivity (PSR sort gate)	high polyreactivity

Kindly review the next sequence as well.
Give the reported value of polyreactivity (PSR sort gate) for this record: QVQLVESGGALVQAGGSLRLSCAASGIIFRYNAMGWYRQAPGKDREVVAAISWSTGSTYYADSVKGRFTISRDNAKNTVYLQMNSLKPEDTAVYYCNAYWLRHIYNYWGQGSQVTVSS
high polyreactivity

----------
assay: yeast display, Sf9 membrane polyspecificity reagent, FACS + sequencing; frameworks hold sequencing errors
MEASURED PROPERTY: polyreactivity (PSR sort gate)

Consider the following illustrative entries.
ENTRY SEQUENCE	MEASURED PROPERTY	RESULT
QVQLVESGGGLVQAGGSLRLSCAASGRIFGGYAMGWYRQAPGKERELVAAIRWSGGSTYADSVKGRFTISRDNAKYTVYLQMNSLKPEDTAVYYCNTVRSPPGHDYWGQGTQVTVSS	polyreactivity (PSR sort gate)	low polyreactivity
QVQLVESGGGLVQAGGSLRLSCAASGYIFTDYDMGWYRPAPGKEREFVAAISSSGGSTYYADSVKGRFTISRDNAKNTVYLQMNRLKPEDTAVYYCAARRRYGRYRGAYDYWGQGTRVTVSS	polyreactivity (PSR sort gate)	high polyreactivity
HAQLQESGGGLVQAGGSLRRSCAASGSIFRFSGMGWYRRAPGKERELVASIGFGSITYYADRVKGRFTISRDNANKTVYLQMNSLKPEDTAVYYCAVQVQDESWLDYWGQGTQVTVSC	polyreactivity (PSR sort gate)	low polyreactivity
QVQLVESGGGLVQAGGSHRLSCAASGSTFAGNAMGWYRQAPGKERELVAAISGSGGITYYADSVKGRFTISRDNAKNTVYLQMNSLKPEDTAVYYCNAYYWFSRYGYWGQGTQVTVSS	polyreactivity (PSR sort gate)	high polyreactivity
QVQLVESGGGLVQAGGILRLSCAASGSIFYAYDKGWYRQAPGKERELVAGISSSDSTYYADSVKGRFTISRDNAKNTVYLQLNSLKPEDTAVYYCAADPVFAAAYIHLYGIYDTWGQGTQVTVSS	polyreactivity (PSR sort gate)	low polyreactivity
QVQLVESGGGLVQAGGSHRLSCAASGSIFIRYAMGWYRQAPAKERELVASITSGGSTYYADSVKGRFTISRDNEKNTVYLQMNSLKPEDTSVYYCNALPYRYRRYDYWGQGTQVTVSS	polyreactivity (PSR sort gate)	low polyreactivity
QVHLVESGGGLVKAGGSLRLSCSASGSIFTYNAMGWYRQAPGKERELVAAISSRGTSTYYSDSVKGRFTISRDNAKNTVYLQMNSLKPEDTAVYYCAAVWVSQRRPWGNTNNYWGQGTQVTVSS	polyreactivity (PSR sort gate)	high polyreactivity
QVQLVESGGGLVQAGGSLRLSCAASGSIFWYNAMGWYRQAPGKERELVAAITSGGTTSYADSVKGRFTISRDNAKNTVYLQMNSLKPEDTAVYYCAKDWNDDQHSWDTPFDYWGQGTQVTVSS	polyreactivity (PSR sort gate)	low polyreactivity
QVHLVESGGGLVQAGGSLRLSCAASGFTFYRTAMGWYRQPPGKERELVAAITRGASTYYADSVKGRFTISRDNAKNNVYLQMNSLKPEDTAVYYCAADRYYYRGRYYGYTREFDYWGQGTQVTVSS	polyreactivity (PSR sort gate)	high polyreactivity
QVQLVESGGGLVQAGGSLRLSCAASGYTFRFNAMGWYRQAPGKEREFVAAIDFGGAGTYYADSVKGRFTISRDNAKNTVYLQMNSLKPEVTAVYYCNARDGVTTEFDYWGQGTQVTVSS	polyreactivity (PSR sort gate)	low polyreactivity

Kindly review the next sequence as well.
Give the reported value of polyreactivity (PSR sort gate) for this record: QVQLVESGGGLVQAGGRLRLSCAASGRIFRWNPMGWYRPAPGIERELVAAISASGGRTNYADSVKGRFTISRDNAKNTVYLQMKSLKPEDTAVYYCAAGPVYYYVPIGYDYWGQGTQVTVSS
high polyreactivity
